# System Name: human PPAR alpha (Homo sapiens)
# Sequence (Q07869 239-466 limits assumed): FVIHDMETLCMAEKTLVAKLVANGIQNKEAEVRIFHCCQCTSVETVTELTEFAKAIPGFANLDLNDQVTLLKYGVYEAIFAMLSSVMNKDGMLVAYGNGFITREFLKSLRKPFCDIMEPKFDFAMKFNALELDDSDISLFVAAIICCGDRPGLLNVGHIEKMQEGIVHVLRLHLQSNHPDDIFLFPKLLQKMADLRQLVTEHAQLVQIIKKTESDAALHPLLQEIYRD
# Run Description: PPAR transient transfection (transactivation) assay in CV-1 cells, hPPAR alpha
# Measurement Context: PPAR LBD-GAL4 chimera, SPAP reporter, 24 h with compound, read-out: human αEC50
# Description: Compounds were screened for functional potency in transient transfection assays in CV-1 cells for their ability to activate the PPAR subtypes (transactivation assay). A previously established chimeric receptor system was utilized to allow comparison of the relative transcriptional activity of the receptor subtypes on the same target gene and to prevent endogenous receptor activation from complicating the interpretation of results. […]
Experimental Readout: EC50 (nM)
Give bare numbers, in nM.

{"columns": ["Structure", "EC50, nM"],
 "data": [
  ["CC(C)(Oc1ccc(CNC(=O)c2sc(-c3ccc(C(F)(F)F)cc3)nc2C(F)(F)F)cc1)C(=O)O", 5]
]}

Hi, could you look up EC50 for each item in my list?
1. CCOC(=O)C(C)(C)Oc1ccc(CNC(=O)c2sc(-c3ccc(C(F)(F)F)cc3)nc2C)cc1
2. Cc1nc(-c2ccc(C(F)(F)F)cc2)oc1C(=O)NCc1ccc(OC(C)(C)C(=O)O)cc1

(A)
17
400

---

# System Name: human PPAR delta (Homo sapiens)
# Sequence (Q03181 211-439 limits assumed): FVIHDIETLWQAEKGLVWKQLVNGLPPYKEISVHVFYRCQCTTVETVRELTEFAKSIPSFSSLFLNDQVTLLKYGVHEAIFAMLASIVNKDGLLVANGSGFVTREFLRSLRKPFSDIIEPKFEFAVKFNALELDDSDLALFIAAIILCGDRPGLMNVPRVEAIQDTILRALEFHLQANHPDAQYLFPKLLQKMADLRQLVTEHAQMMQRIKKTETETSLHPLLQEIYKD
# Run Description: PPAR transient transfection (transactivation) assay in CV-1 cells, PPAR delta
# Measurement Context: PPAR LBD-GAL4 chimera, SPAP reporter, 24 h with compound, read-out: human δEC50
# From the text: Compounds were screened for functional potency in transient transfection assays in CV-1 cells for their ability to activate the PPAR subtypes (transactivation assay). A previously established chimeric receptor system was utilized to allow comparison of the relative transcriptional activity of the receptor subtypes on the same target gene and to prevent endogenous receptor activation from complicating the interpretation of results. […]
Kindly state EC50 for each of the entries shown.

Hi, could you look up EC50 for each item in my list?
1. Cc1nc(-c2ccc(Cl)c(Cl)c2)sc1C(=O)NCc1ccc(OC(C)(C)C(=O)O)cc1
2. Cc1nc(-c2ccc(C(F)(F)F)cc2)sc1C(=O)NCCc1ccc(OC(C)(C)C(=O)O)cc1

(A)
≥ 10 µM
≥ 10 µM

Hi, could you look up EC50 for each item in my list?
1. Cc1nc(-c2ccc(F)cc2)sc1C(=O)NCc1ccc(OC(C)(C)C(=O)O)cc1
2. COc1ccc(-c2nc(C)c(C(=O)NCc3ccc(OC(C)(C)C(=O)O)cc3)s2)cc1
3. Cc1nc(-c2ccc(C(F)(F)F)cc2)sc1C(=O)N(C)Cc1ccc(OC(C)(C)C(=O)O)cc1
4. Cc1nc(-c2ccc(C(C)(C)C)cc2)sc1C(=O)NCc1ccc(OC(C)(C)C(=O)O)cc1
5. Cc1nc(-c2ccc([N+](=O)[O-])cc2)sc1C(=O)NCc1ccc(OC(C)(C)C(=O)O)cc1

(A)
["≥ 10 µM", "≥ 10 µM", "≥ 10 µM", "≥ 10 µM", "≥ 10 µM"]

---

# System Name: human PPAR gamma (Homo sapiens, UniProt P37231)
# Sequence (P37231 238-503 limits assumed): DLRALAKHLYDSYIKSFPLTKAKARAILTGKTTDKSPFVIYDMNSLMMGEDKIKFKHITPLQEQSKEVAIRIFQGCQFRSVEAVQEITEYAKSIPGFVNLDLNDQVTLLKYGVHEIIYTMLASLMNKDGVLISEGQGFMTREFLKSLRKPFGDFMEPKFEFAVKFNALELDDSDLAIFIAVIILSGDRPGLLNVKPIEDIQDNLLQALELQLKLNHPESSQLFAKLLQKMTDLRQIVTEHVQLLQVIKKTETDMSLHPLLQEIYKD
# Run Description: PPAR transient transfection (transactivation) assay in CV-1 cells, hPPAR gamma
# Measurement Context: PPAR LBD-GAL4 chimera, SPAP reporter, 24 h with compound, read-out: human γEC50
Experimental Readout: EC50

{"columns": ["Compound", "EC50"],
 "data": [
  ["Cc1nc(-c2ccccc2)sc1C(=O)NCc1ccc(OC(C)(C)C(=O)O)cc1 [Example 29]", "≥ 10 µM"],
  ["Cc1nc(-c2ccc([N+](=O)[O-])cc2)sc1C(=O)NCc1ccc(OC(C)(C)C(=O)O)cc1 [Example 17]", "≥ 10 µM"],
  ["Cc1nc(-c2ccc(C(F)(F)F)cc2)sc1C(=O)N(C)Cc1ccc(OC(C)(C)C(=O)O)cc1 [Example 6]", "≥ 10 µM"],
  ["CC(C)(Oc1ccc(CNC(=O)c2sc(-c3ccc(C(F)(F)F)cc3)nc2C(F)(F)F)cc1)C(=O)O [Example 41]", "0.832 µM"]
]}

Hi, could you look up EC50 for each item in my list?
1. COc1ccc(-c2nc(C)c(C(=O)NCc3ccc(OC(C)(C)C(=O)O)cc3)s2)cc1 [Example 37]
2. Cc1nc(-c2ccc(Cl)c(Cl)c2)sc1C(=O)NCc1ccc(OC(C)(C)C(=O)O)cc1 [Example 21]
3. Cc1nc(-c2ccc(OC(F)(F)F)cc2)sc1C(=O)NCc1ccc(OC(C)(C)C(=O)O)cc1 [Example 35]
4. Cc1nc(-c2ccc(C(C)(C)C)cc2)sc1C(=O)NCc1ccc(OC(C)(C)C(=O)O)cc1 [Example 13]
5. C#Cc1ccc(-c2nc(C)c(C(=O)NCc3ccc(OC(C)(C)C(=O)O)cc3)s2)cc1 [Example 39]
6. Cc1nc(-c2ccc(Br)cc2)sc1C(=O)NCc1ccc(OC(C)(C)C(=O)O)cc1 [Example 25]
7. Cc1nc(-c2ccc(C(C)C)cc2)sc1C(=O)NCc1ccc(OC(C)(C)C(=O)O)cc1 [Example 15]

(A)
["≥ 10 µM", "≥ 10 µM", "≥ 10 µM", "0.85 µM", "≥ 10 µM", "≥ 10 µM", "2.64 µM"]

Hi, could you look up EC50 for each item in my list?
1. Cc1nc(-c2ccc(C(F)(F)F)cc2)sc1C(=O)NCCc1ccc(OC(C)(C)C(=O)O)cc1 [Example 10]
2. Cc1nc(-c2ccc(C(F)(F)F)cc2)sc1C(=O)NCc1ccc(OC(C)(C)C(=O)O)cc1 [Example 2]
3. Cc1nc(-c2ccc(C(F)(F)F)c(F)c2)sc1C(=O)NCc1ccc(OC(C)(C)C(=O)O)cc1 [Example 23]

(A)
1: ≥ 10 µM; 2: ≥ 10 µM; 3: ≥ 10 µM

Where do the numbers come from? From patent US6518290B1.
